All figures here come from PubChem BioAssay.

- procedure_summary: basal RPMI8226 mitochondrial membrane potential changes, profiling panel, cell-based, JC-1 fluorescence, 24 h, 100 nL compound (AID 1169); also: test concentration not given here
- run_parameters: RPMI8226 myeloma, JC-1 mitochondrial potential fluorescence, higher = more signal
Label 1 for high-side z-score (at or above -0.2) and -1 for low-side z-score (below it).

>>> classification("C#CCNC(=O)[C@H](Cc1ccccc1)NC(=O)CCC(=O)O")
1

z-score >= -0.2 for `COc1ccc([Si](C)(C)[C@H]2[C@H](CC(=O)N3CCC[C@H]3CO)O[C@@]3(C(=O)N(Cc4cccc(N5C(=O)c6cccc7cccc5c67)c4)c4ccccc43)[C@@H]2C)cc1` ? -1

z-score >= -0.2 for `O=C1[C@H]2C=C(Br)[C@H](C[C@@H]2c2ccccc2)[C@@]12CO2` ? -1

z-score >= -0.2 for CCCCN1CC=CC23O[C@@H]4C=CCOC(=O)[C@@H]4[C@H]2C(=O)N(CCCCCO)[C@@H]3C1=O (some centres undefined) ? 1

z-score >= -0.2 for CCCCCN1CC=CC23O[C@@H]4/C=C\CCCOC(=O)C4[C@H]2C(=O)N(C(CO)C(C)C)[C@@H]3C1=O (some centres undefined) ? 1

z-score >= -0.2 for `COc1ccc(C(=O)Nc2ccc(CN3C(=O)[C@@]4(O[C@@H](CC(=O)N5CCC[C@H]5CO)[C@H]([Si](C)(C)c5ccc(OC)cc5)[C@H]4C)c4ccccc43)cc2)cc1` ? -1
